Target: human Aurora A (Homo sapiens)
Construct: Histidine tag (N); host or cells: Sf9 insect cells (baculovirus)
Sequence (O14965 whole entry): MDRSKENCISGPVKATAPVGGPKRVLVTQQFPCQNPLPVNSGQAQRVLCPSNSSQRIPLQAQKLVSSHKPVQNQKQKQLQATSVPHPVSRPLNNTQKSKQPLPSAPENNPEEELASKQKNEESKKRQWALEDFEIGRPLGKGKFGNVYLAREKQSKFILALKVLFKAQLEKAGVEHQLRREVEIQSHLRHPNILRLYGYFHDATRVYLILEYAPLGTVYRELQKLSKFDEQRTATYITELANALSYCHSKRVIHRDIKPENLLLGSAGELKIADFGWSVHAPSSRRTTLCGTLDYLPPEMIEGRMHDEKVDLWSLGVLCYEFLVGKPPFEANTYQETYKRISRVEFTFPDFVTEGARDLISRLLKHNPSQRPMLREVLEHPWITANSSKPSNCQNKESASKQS
Experiment: Aurora A kinase assay (DELFIA enzyme inhibition)
Assay type: biochemical
Details: read-out: Aurora A IC50
pIC50: −log10 of the molar value. Structures can show the parent of a compound that is named as a salt.
// values below are reported pIC50

Consider the following illustrative entries.
[[record]]
compound = "COc1ccc(-c2nc(-c3ccncc3)[nH]c2C(N)=O)cc1"
assay_result = "> 4.00"

[[record]]
compound = "NC(=O)c1nc(-c2c(F)cccc2F)oc1-c1ccc(N2CCNCC2)nc1 [Example G-2, dihydrochloride]"
assay_result = "> 5.00"

[[record]]
compound = "NC(=O)c1nc(-c2c(F)cccc2F)oc1Nc1ccc(N2CCNCC2)cc1"
assay_result = "> 5.00"

[[record]]
compound = "NC(=O)c1nc(-c2c(F)cccc2F)oc1Nc1ccc(C(=O)NC2CCNCC2)cc1"
assay_result = "> 5.00"


Q: Query pIC50 on human Aurora A (Homo sapiens) for NC(=O)c1nc(-c2c(F)cccc2F)oc1-c1cccc(C(=O)N2CCCCC2)c1
Ans: > 4.00

Q: Another: NC(=O)c1nc(-c2c(F)cccc2F)oc1Nc1ccc(C(=O)NCCCO)cc1
Ans: > 5.00

Q: Another: NC(=O)c1nc(-c2ccccc2F)oc1-c1ccc(OCCN2CCCCC2)cc1
Ans: > 5.00

Q: Another: NC(=O)c1nc(-c2c(F)cccc2F)oc1Nc1ccc(C(=O)N2CCC[C@H]2CO)cc1
Ans: > 5.00

* * *

Target: human FLT4 (Homo sapiens)
Construct: a construct expressing the human FLT4 (789-1207) with an amino terminal GST tag; host or cells: Sf9 insect cells (baculovirus)
Sequence (P35916 789-1207): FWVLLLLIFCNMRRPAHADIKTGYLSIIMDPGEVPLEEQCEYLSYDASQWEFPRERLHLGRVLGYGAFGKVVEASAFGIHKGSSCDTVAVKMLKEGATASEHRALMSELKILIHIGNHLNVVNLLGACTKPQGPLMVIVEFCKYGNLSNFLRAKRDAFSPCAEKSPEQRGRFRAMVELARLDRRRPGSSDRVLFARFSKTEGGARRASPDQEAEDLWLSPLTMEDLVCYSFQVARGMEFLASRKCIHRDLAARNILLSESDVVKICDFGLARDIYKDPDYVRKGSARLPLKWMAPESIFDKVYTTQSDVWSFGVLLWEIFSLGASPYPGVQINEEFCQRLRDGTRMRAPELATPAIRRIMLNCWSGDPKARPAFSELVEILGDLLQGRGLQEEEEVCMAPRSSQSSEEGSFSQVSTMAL
Test: FLT4 kinase assay (DELFIA enzyme inhibition)
Type: biochemical
Conditions: read-out: FLT4 IC50
Observation type: IC50

[[record]]
compound = "NC(=O)c1nc(-c2c(F)cccc2F)oc1-c1ccc(N2CCOCC2)cc1 [Example F-4]"
assay_result = "< 10 µM"

[[record]]
compound = "NC(=O)c1nc(-c2c(F)cccc2F)oc1Nc1ccc(NC(=O)C2CCCNC2)cc1 (centres unmarked) [Example V-4]"
assay_result = "< 10 µM"

[[record]]
compound = "NCCNC(=O)c1ccc(Nc2oc(-c3c(F)cccc3F)nc2C(N)=O)cc1 [Example Q-52]"
assay_result = "< 10 µM"

[[record]]
compound = "COc1ccc(-c2oc(-c3cn[nH]c3)nc2C(N)=O)cc1 [Example N-2]"
assay_result = "< 10 µM"


Q: Which IC50 value is on record for NC(=O)c1nc(-c2c(F)cccc2F)oc1-c1ccc(OCC2CCNCC2)cc1 [Example S-14] ?
Ans: < 10 µM

Q: Another: NC(=O)c1nc(-c2c(F)cccc2F)oc1Nc1ccc2c(c1)OCO2 [Example Q-41]
Ans: < 100 µM

Q: Another: COc1ccc(Nc2oc(-c3c(F)cccc3F)nc2C(N)=O)cc1 [Example P-1]
Ans: < 10 µM

* * *

Biological target: human FLT4 (Homo sapiens)
Construct: a construct expressing the human FLT4 (789-1207) with an amino terminal GST tag; host or cells: Sf9 insect cells (baculovirus)
Assay: FLT4 kinase assay (DELFIA enzyme inhibition)
Format: biochemical
Settings: read-out: FLT4 IC50
Observation type: IC50

[[record]]
molecule_smiles = "NC(=O)c1nc(-c2c(F)cccc2F)oc1Nc1ccc(C(=O)N[C@H]2CCCNC2)cc1"
target_of_assay = "human FLT4 (Homo sapiens)"
assay_result = "< 10 µM"

[[record]]
molecule_smiles = "COc1ccc(-c2nc(-c3ccccc3F)[nH]c2C(N)=O)cc1"
target_of_assay = "human FLT4 (Homo sapiens)"
assay_result = "< 100 µM"

[[record]]
molecule_smiles = "NC(=O)c1nc(-c2c(F)cccc2F)oc1Nc1ccc(C(=O)N2CCCCC2)cc1"
target_of_assay = "human FLT4 (Homo sapiens)"
assay_result = "< 10 µM"

[[record]]
molecule_smiles = "NC(=O)c1nc(-c2c(F)cccc2F)oc1Nc1ccc(C(=O)NCCCO)cc1"
target_of_assay = "human FLT4 (Homo sapiens)"
assay_result = "< 10 µM"


Moving on to the next compound.
Q: Which IC50 value is on record for NC(=O)c1[nH]c(-c2c(F)cccc2F)nc1-c1ccccn1 ?
Ans: < 100 µM
